system: L. acidophilus NCFM; assay: RNA-seq transcriptional analysis of L. acidophilus NCFM growing on plant glycosides; format: cell-based, Lactobacillus acidophilus; conditions: gene LBA0263 (Hypothetical protein)
Reported Transcripts per million (rpm) is given for each of the following compounds.
Answer format: number, then unit.

Before answering, review these 3 worked examples.
STRUCTURE AS SMILES: O=c1ccc2cc(O[C@@H]3O[C@H](CO)[C@@H](O)[C@H](O)[C@H]3O)c(O)cc2o1
TARGET ENTITY: L. acidophilus NCFM
Transcripts per million (rpm): 59.9 rpm
--
STRUCTURE AS SMILES: OC[C@H]1O[C@@H](O[C@H]2[C@H](O)[C@@H](O)[C@@H](O)O[C@@H]2CO)[C@H](O)[C@@H](O)[C@H]1O
TARGET ENTITY: L. acidophilus NCFM
Transcripts per million (rpm): 27 rpm
--
STRUCTURE AS SMILES: N#C[C@H](O[C@@H]1O[C@H](CO[C@@H]2O[C@H](CO)[C@@H](O)[C@H](O)[C@H]2O)[C@@H](O)[C@H](O)[C@H]1O)c1ccccc1
TARGET ENTITY: L. acidophilus NCFM
Transcripts per million (rpm): 55.9 rpm

Field: next compound
Recorded Transcripts per million (rpm) of `OCc1ccccc1O[C@@H]1O[C@H](CO)[C@@H](O)[C@H](O)[C@H]1O` , please.
30.2 rpm

====

The following molecules are shown together with reported Transcripts per million (rpm) values.
test system: L. acidophilus NCFM; test: RNA-seq transcriptional analysis of L. acidophilus NCFM growing on plant glycosides; assay type: cell-based, Lactobacillus acidophilus; conditions: LBA1607 Phosphatidylserine decarboxylase precursor, COG I
Field format: number, assumed rpm, no unit text.

STRUCTURE AS SMILES: N#C[C@H](O[C@@H]1O[C@H](CO[C@@H]2O[C@H](CO)[C@@H](O)[C@H](O)[C@H]2O)[C@@H](O)[C@H](O)[C@H]1O)c1ccccc1
UNIT DESCRIPTOR: rpm
Transcripts per million (rpm): 102.4

Dear colleague, I am looking for the recorded Transcripts per million (rpm) of the following molecule: `OCc1ccccc1O[C@@H]1O[C@H](CO)[C@@H](O)[C@H](O)[C@H]1O`
37.9

Can you look up the measured Transcripts per million (rpm) of `O=c1ccc2cc(O[C@@H]3O[C@H](CO)[C@@H](O)[C@H](O)[C@H]3O)c(O)cc2o1` for me?
59.5

Given `OC[C@H]1O[C@@H](O[C@H]2[C@H](O)[C@@H](O)[C@@H](O)O[C@@H]2CO)[C@H](O)[C@@H](O)[C@H]1O` , state its recorded Transcripts per million (rpm).
41.1

====

test system: L. acidophilus NCFM; test: RNA-seq transcriptional analysis of L. acidophilus NCFM growing on plant glycosides; format: cell-based, Lactobacillus acidophilus; conditions: LBA0329 Putative cell division protein, COG D
Each record here notes measured Log2 differential normalized TPM ratio compared to glucose.
Provide a numeric answer; units are not to be included.

Recorded Log2 differential normalized TPM ratio compared to glucose, per entry:
STRUCTURE AS SMILES: N#C[C@H](O[C@@H]1O[C@H](CO[C@@H]2O[C@H](CO)[C@@H](O)[C@H](O)[C@H]2O)[C@@H](O)[C@H](O)[C@H]1O)c1ccccc1
NUMERIC READOUT: −0.1

STRUCTURE AS SMILES: O=c1ccc2cc(O[C@@H]3O[C@H](CO)[C@@H](O)[C@H](O)[C@H]3O)c(O)cc2o1
NUMERIC READOUT: 2.4

STRUCTURE AS SMILES: OCc1ccccc1O[C@@H]1O[C@H](CO)[C@@H](O)[C@H](O)[C@H]1O
NUMERIC READOUT: 0.4

Lab request: please report Log2 differential normalized TPM ratio compared to glucose under test system L. acidophilus NCFM for `OC[C@H]1O[C@@H](O[C@H]2[C@H](O)[C@@H](O)[C@@H](O)O[C@@H]2CO)[C@H](O)[C@@H](O)[C@H]1O`
0.4

====

tested on: L. acidophilus NCFM; experiment: RNA-seq transcriptional analysis of L. acidophilus NCFM growing on plant glycosides; type: cell-based, Lactobacillus acidophilus; conditions: LBA0547 Putative site-specific recombinase, COG L
Parameter: Log2 differential normalized TPM ratio compared to glucose. Scope: all listed entries.
Please reply with the value in numeric form only.

STRUCTURE AS SMILES: O=c1ccc2cc(O[C@@H]3O[C@H](CO)[C@@H](O)[C@H](O)[C@H]3O)c(O)cc2o1
NUMERIC READOUT: 2.1

May I ask what Log2 differential normalized TPM ratio compared to glucose has been recorded for `N#C[C@H](O[C@@H]1O[C@H](CO[C@@H]2O[C@H](CO)[C@@H](O)[C@H](O)[C@H]2O)[C@@H](O)[C@H](O)[C@H]1O)c1ccccc1` ?
1.5

Bench note: what Log2 differential normalized TPM ratio compared to glucose did `OCc1ccccc1O[C@@H]1O[C@H](CO)[C@@H](O)[C@H](O)[C@H]1O` show?
1.5

Field request: Log2 differential normalized TPM ratio compared to glucose | item: `OC[C@H]1O[C@@H](O[C@H]2[C@H](O)[C@@H](O)[C@@H](O)O[C@@H]2CO)[C@H](O)[C@@H](O)[C@H]1O`
1.7

====

tested on: L. acidophilus NCFM; assay: RNA-seq transcriptional analysis of L. acidophilus NCFM growing on plant glycosides; format: cell-based, Lactobacillus acidophilus; conditions: gene LBA0492 (Hypothetical protein)
OBSERVATION TYPE: Transcripts per million (rpm)
Just the number please, in rpm, no unit attached.

Given the entry `O=c1ccc2cc(O[C@@H]3O[C@H](CO)[C@@H](O)[C@H](O)[C@H]3O)c(O)cc2o1` , report its measured Transcripts per million (rpm).
108.4

For the compound `OCc1ccccc1O[C@@H]1O[C@H](CO)[C@@H](O)[C@H](O)[C@H]1O` , what Transcripts per million (rpm) is on record?
32.8

Item `OC[C@H]1O[C@@H](O[C@H]2[C@H](O)[C@@H](O)[C@@H](O)O[C@@H]2CO)[C@H](O)[C@@H](O)[C@H]1O` has what recorded Transcripts per million (rpm)?
44.2

Entry `N#C[C@H](O[C@@H]1O[C@H](CO[C@@H]2O[C@H](CO)[C@@H](O)[C@H](O)[C@H]2O)[C@@H](O)[C@H](O)[C@H]1O)c1ccccc1` : reported Transcripts per million (rpm) = ?
213.1

====

test system: L. acidophilus NCFM; test: RNA-seq transcriptional analysis of L. acidophilus NCFM growing on plant glycosides; assay type: cell-based, Lactobacillus acidophilus; details: LBA0887 Hypothetical protein, COG C
# Lookup of reported Log2 differential normalized TPM ratio compared to glucose keyed by entry
Provide a numeric answer; units are not to be included.

Recorded results for 3 molecules are shown here.
STRUCTURE AS SMILES: OCc1ccccc1O[C@@H]1O[C@H](CO)[C@@H](O)[C@H](O)[C@H]1O
NUMERIC READOUT: 1.5

STRUCTURE AS SMILES: O=c1ccc2cc(O[C@@H]3O[C@H](CO)[C@@H](O)[C@H](O)[C@H]3O)c(O)cc2o1
NUMERIC READOUT: 1.3

STRUCTURE AS SMILES: OC[C@H]1O[C@@H](O[C@H]2[C@H](O)[C@@H](O)[C@@H](O)O[C@@H]2CO)[C@H](O)[C@@H](O)[C@H]1O
NUMERIC READOUT: 1.2

Now turn to the next molecule.
Field request: Log2 differential normalized TPM ratio compared to glucose | item: `N#C[C@H](O[C@@H]1O[C@H](CO[C@@H]2O[C@H](CO)[C@@H](O)[C@H](O)[C@H]2O)[C@@H](O)[C@H](O)[C@H]1O)c1ccccc1`
2.4

====

test system: L. acidophilus NCFM; assay: RNA-seq transcriptional analysis of L. acidophilus NCFM growing on plant glycosides; type: cell-based, Lactobacillus acidophilus; conditions: LBA0466 Hypothetical protein, COG C
OBSERVATION TYPE: Transcripts per million (rpm)
State the answer as a number, implicitly in rpm.

Take a look at these entries with their results.
MOLECULE: N#C[C@H](O[C@@H]1O[C@H](CO[C@@H]2O[C@H](CO)[C@@H](O)[C@H](O)[C@H]2O)[C@@H](O)[C@H](O)[C@H]1O)c1ccccc1 [Amygdalin]
UNIT DESCRIPTOR: rpm
Transcripts per million (rpm): 2769.5
//
MOLECULE: O=c1ccc2cc(O[C@@H]3O[C@H](CO)[C@@H](O)[C@H](O)[C@H]3O)c(O)cc2o1 [Esculin]
UNIT DESCRIPTOR: rpm
Transcripts per million (rpm): 408.4
//
MOLECULE: OCc1ccccc1O[C@@H]1O[C@H](CO)[C@@H](O)[C@H](O)[C@H]1O [Salicin]
UNIT DESCRIPTOR: rpm
Transcripts per million (rpm): 238.1

Field: next molecule
State the recorded Transcripts per million (rpm) for this entry: OC[C@H]1O[C@@H](O[C@H]2[C@H](O)[C@@H](O)[C@@H](O)O[C@@H]2CO)[C@H](O)[C@@H](O)[C@H]1O [Lac]
270
